- TEST_TARGET: Integrin alpha-IIb/beta-3 (Homo sapiens, UniProt P05106+P08514)
- Sequence (P05106 27-788 limits assumed): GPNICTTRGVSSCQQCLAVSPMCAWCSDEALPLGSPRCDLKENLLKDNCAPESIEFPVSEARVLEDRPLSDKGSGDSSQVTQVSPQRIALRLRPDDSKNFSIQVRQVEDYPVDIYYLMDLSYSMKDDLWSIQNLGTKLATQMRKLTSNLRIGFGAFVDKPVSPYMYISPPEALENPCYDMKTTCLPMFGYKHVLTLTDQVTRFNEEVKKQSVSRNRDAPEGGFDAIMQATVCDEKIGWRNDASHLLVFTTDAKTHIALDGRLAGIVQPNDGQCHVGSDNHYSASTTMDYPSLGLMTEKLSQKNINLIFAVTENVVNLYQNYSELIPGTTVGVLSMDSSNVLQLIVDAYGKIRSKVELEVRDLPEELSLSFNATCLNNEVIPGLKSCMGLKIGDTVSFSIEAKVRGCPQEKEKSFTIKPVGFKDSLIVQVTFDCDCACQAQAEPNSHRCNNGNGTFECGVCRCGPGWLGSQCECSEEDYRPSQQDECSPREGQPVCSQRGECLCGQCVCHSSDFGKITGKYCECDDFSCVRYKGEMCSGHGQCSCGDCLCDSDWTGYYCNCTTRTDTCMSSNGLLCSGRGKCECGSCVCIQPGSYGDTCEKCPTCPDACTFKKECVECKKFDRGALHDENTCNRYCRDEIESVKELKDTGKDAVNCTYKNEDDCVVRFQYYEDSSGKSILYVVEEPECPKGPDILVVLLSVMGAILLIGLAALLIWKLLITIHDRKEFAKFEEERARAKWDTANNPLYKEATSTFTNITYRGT
- Sequence (P08514 32-887 limits assumed): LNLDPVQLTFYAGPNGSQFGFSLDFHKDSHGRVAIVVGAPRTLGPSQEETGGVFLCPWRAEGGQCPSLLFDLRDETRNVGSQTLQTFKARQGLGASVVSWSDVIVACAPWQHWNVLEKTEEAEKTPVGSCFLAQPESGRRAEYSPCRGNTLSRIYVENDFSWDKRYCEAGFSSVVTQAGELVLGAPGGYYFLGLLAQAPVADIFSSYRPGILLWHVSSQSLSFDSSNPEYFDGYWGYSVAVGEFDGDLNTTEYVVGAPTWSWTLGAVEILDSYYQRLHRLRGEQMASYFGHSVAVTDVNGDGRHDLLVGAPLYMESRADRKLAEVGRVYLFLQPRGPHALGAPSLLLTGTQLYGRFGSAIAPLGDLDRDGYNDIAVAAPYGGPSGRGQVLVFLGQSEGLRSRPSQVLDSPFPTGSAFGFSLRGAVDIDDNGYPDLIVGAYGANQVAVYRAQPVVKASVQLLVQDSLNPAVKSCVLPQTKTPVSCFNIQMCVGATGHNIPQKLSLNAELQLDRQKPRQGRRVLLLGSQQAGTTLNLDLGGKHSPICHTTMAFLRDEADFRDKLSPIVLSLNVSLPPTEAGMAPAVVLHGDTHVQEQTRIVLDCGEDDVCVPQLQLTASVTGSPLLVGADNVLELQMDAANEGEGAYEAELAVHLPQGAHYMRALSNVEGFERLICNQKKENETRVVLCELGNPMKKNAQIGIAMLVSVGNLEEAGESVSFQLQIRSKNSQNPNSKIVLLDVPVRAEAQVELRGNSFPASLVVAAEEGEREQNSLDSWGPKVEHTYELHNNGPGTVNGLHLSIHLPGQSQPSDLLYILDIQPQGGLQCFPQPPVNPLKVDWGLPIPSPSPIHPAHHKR
- Sequence (P08514 891-1039 limits assumed): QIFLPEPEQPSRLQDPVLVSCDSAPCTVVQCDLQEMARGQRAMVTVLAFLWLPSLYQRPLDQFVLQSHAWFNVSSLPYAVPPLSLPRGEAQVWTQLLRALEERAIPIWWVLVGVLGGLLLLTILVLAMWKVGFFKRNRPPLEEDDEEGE
- PROTOCOL_SUMMARY: Dissociation constant for platelet glycoprotein alphaIIb-beta3 integrin from human platelets
METRIC: Ki (µM)
State the answer as a number, implicitly in µM.

Task: I am curious: what Ki value has been reported for CN(C(=O)c1ccccc1SCC(=O)NC1CC(C)(C)N([O])C(C)(C)C1)[C@@H](CCCN=C(N)N)C(=O)NCC(=O)N[C@@H](C(=O)O)C(=O)Nc1ccccc1SCC(=O)NC1CC(C)(C)N([O])C(C)(C)C1 ?
Result: 0.11
